Here, each record is paired with measured half-life at 0.5 μM data.
Assay: Mouse liver microsome stability assay
Type: in vitro ADME
Settings: male, CD1, mouse, microsomes, pH 7.4
Return type: number; implicit unit min.

Consider the following illustrative entries.
{"columns": ["compound", "value"],
 "data": [
  ["CC(=O)Nc1ccc(Oc2ccccc2)c(-c2cn(C)c(=O)c3[nH]ccc23)c1", 3],
  ["CC(C)COc1ccc(S(C)(=O)=O)cc1-c1cn(C)c(=O)c2[nH]ccc12", 43],
  ["Cn1cc(-c2ccccc2CN2CCOCC2)c2cc[nH]c2c1=O", 33],
  ["Cn1cc(-c2cc(S(C)(=O)=O)ccc2Oc2ccc(F)cc2F)c2cc(CO)[nH]c2c1=O", 71],
  ["CCCS(=O)(=O)Nc1ccc(OC2CCOCC2)c(-c2cn(C)c(=O)c3[nH]ccc23)c1", 35],
  ["CCS(=O)(=O)c1ccc(OCC2CC2(F)F)c(-c2cn(C)c(=O)c3[nH]ccc23)c1 (centres unmarked)", 47]
]}

// next entry
Consider the compound Cn1cc(-c2cc(CS(=O)(=O)c3ccccc3)ccc2Oc2ccc(F)cc2F)c2cc[nH]c2c1=O and give its measured half-life at 0.5 μM.
3

###

Biological target: human BRD4 second bromodomain (BDII_E352-M457) (Homo sapiens (Human), UniProt O60885)
Test: TR-FRET bromodomain binding assay, BRD4 second bromodomain
Ki class ranges: category 1 = under 7 nM, category 2 = from 7 nM up to 20 nM, category 3 = 20 nM and over

{"columns": ["molecule", "classification"],
 "data": [
  ["COc1ccc2[nH]cc(CCNC(=O)c3ccc(Oc4ccc(F)cc4F)c(-c4cn(C)c(=O)c5[nH]ccc45)c3)c2c1 [Example 124]", "category 3"],
  ["Cn1cc(-c2cc(NS(C)(=O)=O)ccc2Oc2ccccc2C(F)(F)F)c2cc[nH]c2c1=O [Example 32]", "category 2"],
  ["Cn1cc(-c2cc(S(C)(=O)=O)ccc2Oc2cc(F)c(F)c(F)c2)c2cc[nH]c2c1=O [Example 194]", "category 2"]
]}

Determine which band this molecule sits in: Cn1cc(-c2cc(S(C)(=O)=O)ccc2Oc2ccc(CC(N)=O)cc2)c2cc[nH]c2c1=O [Example 165]
category 1

Then Cn1cc(-c2cc(S(C)(=O)=O)ccc2Oc2ccccc2F)c2cc[nH]c2c1=O [Example 149] ?
category 1

Then Cn1cc(-c2cc(C(=O)O)ccc2Oc2ccccc2)c2cc[nH]c2c1=O [Example 10] ?
category 2

Then CCOC(=O)N1CCC(Oc2ccc(S(=O)(=O)CC)cc2-c2cn(C)c(=O)c3[nH]ccc23)CC1 [Example 301] ?
category 2

Then Cn1cc(-c2cc(S(N)(=O)=O)ccc2NCC2CC2)c2cc[nH]c2c1=O [Example 238] ?
category 1

Then Cc1ccc(S(=O)(=O)n2ccc3c(-c4cc(NS(C)(=O)=O)ccc4Oc4ccccc4)cn(C)c(=O)c32)cc1 [Example 7] ?
category 3

Then CCS(=O)(=O)N(CC1CCCO1)c1ccc(Oc2ccc(F)cc2F)c(-c2cn(C)c(=O)c3[nH]ccc23)c1 (stereo not shown) [Example 345] ?
category 3

Then Cn1cc(-c2cc(S(C)(=O)=O)ccc2OCC2C[C@@H]3CC[C@H]2C3)c2cc[nH]c2c1=O (stereo partly shown) [Example 230] ?
category 1

Then Cn1cc(-c2cc(S(=O)(=O)N3CCCC3)ccc2OCC2CC2)c2cc[nH]c2c1=O [Example 302] ?
category 1

Then Cn1cc(-c2cc(-c3cccc(F)c3)ccc2OCC2CC2)c2cc[nH]c2c1=O [Example 334] ?
category 3

Then Cn1cc(-c2cc(S(C)(=O)=O)ccc2Nc2ccc(F)cc2)c2cc[nH]c2c1=O [Example 332] ?
category 3

Then Cn1cc(-c2cc(S(C)(=O)=O)ccc2Oc2ccc(F)cc2F)c2cc[nH]c2c1=O [Example 138] ?
category 2

###

Assay: Human liver microsome stability assay
Type: in vitro ADME
Conditions: both sexes, human, microsomes, pH 7.4
Here, each record is paired with measured half-life at 0.5 μM data.
Return type: number; implicit unit min.

{"columns": ["compound", "half-life at 0.5 μM, min"],
 "data": [
  ["CNS(=O)(=O)Nc1ccc(Oc2c(F)cc(F)cc2F)c(-c2cn(C)c(=O)c3[nH]ccc23)c1", 26],
  ["CCS(=O)(=O)N(CCC(F)(F)F)c1ccc(Oc2ccc(F)cc2F)c(-c2cn(C)c(=O)c3[nH]ccc23)c1", 4]
]}

Consider the compound CCCS(=O)(=O)Nc1ccc(OC2CCOC2)c(-c2cn(C)c(=O)c3[nH]ccc23)c1 (stereo not drawn) and give its measured half-life at 0.5 μM.
97

Then CN(C)S(=O)(=O)Nc1ccc(Oc2ccccc2)c(-c2cn(C)c(=O)c3[nH]ccc23)c1 ?
32

Then CC(COC(C)(C)C)Oc1ccc(S(C)(=O)=O)cc1-c1cn(C)c(=O)c2[nH]ccc12 (stereo not drawn) ?
25

Then COc1ccc(NC(=O)c2ccc(Oc3ccc(F)cc3F)c(-c3cn(C)c(=O)c4[nH]ccc34)c2)c(OC)n1 ?
34

Then CCS(=O)(=O)N(CCN(C)C)c1ccc(Oc2ccc(F)cc2F)c(-c2cn(C)c(=O)c3[nH]ccc23)c1 ?
7

Then CN(C)C(=O)CN1CCN(C(=O)c2ccc(Oc3ccc(F)cc3F)c(-c3cn(C)c(=O)c4[nH]ccc34)c2)CC1 ?
44

Then Cn1cc(-c2cc(NS(=O)(=O)CC(F)(F)F)ccc2Oc2ccccc2)c2cc[nH]c2c1=O ?
100

Then Cn1cc(-c2ccccc2C(=O)c2ccc(Cl)cc2)c2cc[nH]c2c1=O ?
13

Then CCS(=O)(=O)c1ccc(Oc2ccc(F)cc2F)c(-c2cn(C)c(=O)c3[nH]ccc23)c1 ?
66

Then Cn1nc(-c2cc(NS(C)(=O)=O)ccc2Oc2ccccc2)c2cc[nH]c2c1=O ?
62

Then Cn1cc(-c2cc(CN3CCCC3)ccc2OCC2CC2)c2cc[nH]c2c1=O ?
81

Then Cn1cc(-c2cc(S(=O)(=O)c3ccccc3)ccc2OCC2CC2)c2cc[nH]c2c1=O ?
19

###

Target: human BRD4 second bromodomain (BDII_E352-M457) (Homo sapiens (Human))
Assay: TR-FRET bromodomain binding assay, BRD4 second bromodomain
# strict inequality: Ki < 6 nM yields rule met, everything else yields rule not met

{"columns": ["molecule", "testedOn", "classification"],
 "data": [
  ["Cn1nc(-c2cc(N)ccc2Oc2ccc(F)cc2F)c2cc[nH]c2c1=O [Example 148]", "human BRD4 second bromodomain (BDII_E352-M457) (Homo sapiens (Human))", "rule not met"]
]}

Determine if Cn1cc(-c2cc(C(=O)N3CCN(C(=O)c4ccco4)CC3)ccc2Oc2ccc(F)cc2F)c2cc[nH]c2c1=O [Example 134] shows Ki strictly lower than 6 nM.
rule not met

Then CN(C)C(=O)c1cc2c(-c3cc(S(C)(=O)=O)ccc3Oc3ccc(F)cc3F)cn(C)c(=O)c2[nH]1 [Example 269] ?
rule not met

Then Cn1cc(-c2cc(S(=O)(=O)NCc3cccnc3)ccc2OCC2CC2)c2cc[nH]c2c1=O [Example 333] ?
rule not met

Then Cn1cc(-c2cc(S(N)(=O)=O)cnc2NCC2CC2)c2cc[nH]c2c1=O [Example 209] ?
rule met

Then Cn1cc(-c2cc(C(=O)NCC(C)(C)O)ccc2Oc2ccc(F)cc2F)c2cc[nH]c2c1=O [Example 123] ?
rule not met

###

Target: human BRD4 first bromodomain (BDI_K57-E168) (Homo sapiens (Human))
Experiment: TR-FRET bromodomain binding assay, BRD4 first bromodomain
measuredProperty: Ki
Could you give the number and then its unit, please?

Consider the following illustrative entries.
{"columns": ["compound", "Ki"],
 "data": [
  ["CCS(=O)(=O)c1ccc(NC2CC2)c(-c2cn(C)c(=O)c3[nH]ccc23)c1 [Example 267]", "4.4 nM"],
  ["Cn1cc(-c2cc(CN3CCCC3)ccc2OCC2CC2)c2cc[nH]c2c1=O [Example 314]", "1600 nM"],
  ["Cn1cc(-c2cc(S(C)(=O)=O)ccc2Oc2ccc(C#N)cc2)c2cc[nH]c2c1=O [Example 156]", "11.3 nM"],
  ["CNS(=O)(=O)c1ccc(OCC2CC2)c(-c2cn(C)c(=O)c3[nH]ccc23)c1 [Example 250]", "1.5 nM"],
  ["Cn1cc(-c2cc(S(C)(=O)=O)ccc2Oc2cccc(Cl)c2)c2cc[nH]c2c1=O [Example 153]", "22.8 nM"]
]}

Consider the compound Cn1cc(-c2cc(S(=O)(=O)N3CCC(O)CC3)ccc2OCC2CC2)c2cc[nH]c2c1=O [Example 354] and give its measured Ki.
66 nM

Then Cn1cc(-c2cc(C(=O)N3CCOCC3)ccc2Oc2ccc(F)cc2F)c2cc[nH]c2c1=O [Example 56] ?
12.2 nM
